Tested on: A549
procedure-details: cells
condition-parameters: Homo sapiens, A549, 24 h
Description: Antiproliferative activity against human A549 cells assessed as reduction in cell viability incubated for 24 hrs by MTT assay
observed-property: IC50 (µM)
# unit: µM | format: bare number

smiles-str	tgt	IC50 (µM)
O=C(NCc1cc(C(F)(F)F)cc(C(F)(F)F)c1)Nc1ccc(C(F)(F)F)cc1	A549	13.3
C/C(=N\NC(=O)c1cccc(Br)c1)c1ccc(C(=O)Nc2cc(N3CCOCC3)ccn2)cc1	A549	13.7

// assay A549, entry C/C(=N\NC(=O)c1ccc(C)c(F)c1)c1ccc(N)cc1 , IC50 value = 12

// assay A549, entry C/C(=N\NC(=O)c1cccc(F)c1)c1ccc(C(=O)Nc2nc3ccccc3[nH]2)cc1 , IC50 value = 7.81

// assay A549, entry C/C(=N\NC(=O)c1ccc(C)c(Br)c1)c1ccc(N)cc1 , IC50 value = 13.6

// assay A549, entry C/C(=N\NC(=O)c1cccc(Br)c1)c1ccc(C(=O)NN2CCOCC2)cc1 , IC50 value = 11.2

// assay A549, entry C/C(=N\NC(=O)c1ccc(C)c(Br)c1)c1ccc(C(F)(F)F)cc1 , IC50 value = 9.07

// assay A549, entry O=C(Nc1ccc(C(F)(F)F)cc1)Nc1cccc(F)c1 , IC50 value = 11.5
